testDetails: absolute recovery over mixed-bed multilayer solid-phase extraction; higher = better recovery
conditionInfo: nanopure water; enrichment method: SPE
measurementLabel: absolute recovery (%)

CCC1OC(=O)C(C)C(OC2CC(C)(OC)C(O)C(C)O2)C(C)C(OC2OC(C)CC([NH+](C)C)C2O)C(C)(O)CC(C)C[NH+](C)C(C)C(O)C1(C)O (stereo not given)
77.4
C[NH2+]CCC(Oc1ccc(C(F)(F)F)cc1)c1ccccc1 (stereo not given)
79.8
CC=CC(=O)N(CC)C(CC)C(=O)N(C)C (stereo not given) [Crotethamide]
106

(P) CCC[NH2+]C(C)C(=O)Nc1ccccc1C (stereo not given)
(Q) C[NH+]1CCCC1c1cccnc1 (stereo not given)
[in] Looking only at measured absolute recovery, which entry is lower, P or Q ? Label of pick, please.
[out] Q
(Q: 35.1%, P: 82.5%)

###

testDetails: absolute recovery over mixed-bed multilayer solid-phase extraction; higher = better recovery
conditionInfo: wastewater effluent; enrichment method: SPE
measurementLabel: absolute recovery (%)

C[NH2+]CCC(c1ccccc1)c1ccccn1 (centres undefined)
65.1
O=C1Nc2ccc(Cl)cc2C(C#CC2CC2)(C(F)(F)F)O1 (centres undefined)
92.4
CCC(C)C(=O)OC1CC(C)C=C2C=CC(C)C(CCC3CC(O)CC(=O)O3)C21 (centres undefined)
76.1
Cc1ccc(NC(=O)N(C)C)cc1Cl
93
CC(C)[NH+](CCC(C(N)=O)(c1ccccc1)c1ccccn1)C(C)C (centres undefined) [Disopyramide]
92
CCOCCN(C(=O)CCl)C(=C(C)C)c1ccccc1
86.7
CCCCc1[nH+]cc(C=C(Cc2cccs2)C(=O)[O-])n1Cc1ccc(C(=O)[O-])cc1
93.6
CON=C(C(=O)[O-])c1ccccc1COc1ccccc1C
81.5
C[Si](Cn1cncn1)(c1ccc(F)cc1)c1ccc(F)cc1
99.5

###

testDetails: absolute recovery over mixed-bed multilayer solid-phase extraction; higher = better recovery
conditionInfo: wastewater effluent; enrichment method: SPE
measurementLabel: absolute recovery (%)

CCC1OC(=O)C(C)C(OC2CC(C)(OC)C(O)C(C)O2)C(C)C(OC2OC(C)CC([NH+](C)C)C2O)C(C)(OC)CC(C)C(=O)C(C)C(O)C1(C)O (stereo not drawn)
91
O=C([O-])C[N-]S(=O)(=O)C(F)(F)C(F)(F)C(F)(F)C(F)(F)C(F)(F)C(F)(F)C(F)(F)C(F)(F)F
76.6
O=C([O-])C(c1ccccc1Cl)[NH+]1CCc2sccc2C1 (stereo not drawn)
91.1

###

testDetails: absolute recovery over vacuum-assisted evaporative concentration; higher = better recovery
conditionInfo: wastewater influent; enrichment method: VEC
measurementLabel: absolute recovery (%)

Example compounds with recorded absolute recovery:
COC=C(C(=O)[O-])c1ccccc1Oc1cc(Oc2ccccc2C#N)ncn1
97.7
CCCCOc1ccc(OCCC[NH+]2CCOCC2)cc1
91
CCNc1nc(O)nc(NCC)n1 [Simazin-2-hydroxy]
107
COC=C(C(=O)OC)c1ccccc1COc1cccc(C(F)(F)F)n1
121
CCC(C)C(=O)OC1CC(C)C=C2C=CC(C)C(CCC3CC(O)CC(=O)O3)C21 (centres undefined)
106

(1) C[NH2+]CC(c1ccc(O)cc1)C1(O)CCCCC1 (centres undefined)
(2) CC12C=CC(=O)C=C1CCC1C2C(O)CC2(C)C1CCC2(O)C(=O)CO (centres undefined)
[in] Looking only at measured absolute recovery, which entry is lower, 1 or 2 ? Label of pick, please.
[out] 2
